All figures here come from paper PMC6613885.

Form field: Kd (one value per entry).
- TARGET OR TEST SYSTEM: recombinant GABARAPL1 (biolayer interferometry) (UniProt Q9H0R8 1-117)
- Sequence (Q9H0R8 whole entry, looked up): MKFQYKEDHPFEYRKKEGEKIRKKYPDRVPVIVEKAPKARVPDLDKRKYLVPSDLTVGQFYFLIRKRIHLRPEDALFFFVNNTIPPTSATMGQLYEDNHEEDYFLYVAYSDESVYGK
- ASSAY PROCEDURE: BLI; biotin-LIR peptides (50 µg/ml) on streptavidin biosensors, Atg8-family protein in solution at different concentrations; Octet Red 96; 25°C; global fit, 1:1 model
- CONDITION: both partners purified
Ends that are not written are not given here.
Write the number in µM without appending the unit.

Here's what some known entries look like.
>  <BINDER>
ETDLGTDWENLPSPRF (also: biotin label, place not given here) [biotin-labeled 16-mer ATG14 LIR peptide]

>  <Kd, µM>
1.9

$$$$
>  <BINDER>
SSPILTSFELVKVPDP (also: biotin label, place not given here) [biotin-labeled 16-mer PIK3C3 LIR peptide]

>  <Kd, µM>
65

$$$$

# ---- query binder ----
Kd recorded for this binder, STESANSFTLIGEASD (also: biotin label, place not given here) [biotin-labeled 16-mer BECN1 LIR peptide] , is 7.95
